- METHOD DESCRIPTION: Dynamic light scattering: LNP particle size and PDI
- Assay type: physicochemical
- CONDITION DESCRIPTION: LNP compositions for in vivo mouse study; four formulations (F1-F4) of the lipid compound pooled, or pools of four compounds (sixteen compositions)
VALUE KIND: Particle Size (nm)

COMPOUND	VALUE KIND	OBSERVED RESULT
CCCCCCCC/C=C\CCCCCCCC(=O)OCC(COC(=O)CCCCCCC/C=C\CCCCCCCC)(COC(=O)CCC(CCCCCC)OC(=O)NCCN1CCCC1)COC(=O)CCC(OCCCCCCCC)OCCCCCCCC (stereo not shown)	Particle Size (nm)	93.4
CCCCC/C=C\C/C=C\CCCCCCCC(=O)OCC(COC(=O)CCCCCCC/C=C\C/C=C\CCCCC)(COC(=O)CCCCCCC/C=C\C/C=C\CCCCC)COC(=O)CCC(CCCCCC)OC(=O)NCCN1CCCC1 (stereo not shown)	Particle Size (nm)	82.3
CCCCCCC(CCC(=O)OCC(COC(=O)CCCCCCOC(=O)C(CCCC)CCCCCC)(COC(=O)CCCCCCOC(=O)C(CCCC)CCCCCC)COC(=O)CCCCCCOC(=O)C(CCCC)CCCCCC)OC(=O)NCCN1CCCC1 (stereo not shown)	Particle Size (nm)	81.1
CCCCCCCC/C=C\CCCCCCCC(=O)OCC(COC(=O)CCCCCCC/C=C\CCCCCCCC)(COC(=O)CCCCCCC/C=C\CCCCCCCC)COC(=O)CCC(CCCCCC)OC(=O)NCCN1CCCC1 (stereo not shown)	Particle Size (nm)	89.9

###

- METHOD DESCRIPTION: Plate-based fluorescence (RiboGreen) assay: nucleic acid cargo content and encapsulation efficiency of LNPs
- Assay type: physicochemical
- CONDITION DESCRIPTION: LNP compositions for in vivo mouse study; four formulations (F1-F4) pooled, or pools of four compounds
VALUE KIND: EE % (%)

COMPOUND	OBSERVED RESULT
CCCCC/C=C\C/C=C\CCCCCCCC(=O)OCC(COC(=O)CCCCCCC/C=C\C/C=C\CCCCC)(COC(=O)CCC(CCCCCC)OC(=O)NCCN1CCCC1)COC(=O)CC12CC3CC(CC(C3)C1)C2 (stereo not drawn) [Compound 5]	96
CCCCCCC(CCC(=O)OCC(COC(=O)CCCCCCOC(=O)C(CCCC)CCCCCC)(COC(=O)CCCCCCOC(=O)C(CCCC)CCCCCC)COC(=O)CCCCCCOC(=O)C(CCCC)CCCCCC)OC(=O)NCCN1CCCC1 (stereo not drawn) [Compound 18]	97
CCCCCCCC/C=C\CCCCCCCC(=O)OCC(COC(=O)CCCCCCC/C=C\CCCCCCCC)(COC(=O)CCC(CCCCCC)OC(=O)NCCN1CCCC1)COC(=O)CCC(OCCCCCCCC)OCCCCCCCC (stereo not drawn) [Compound 4]	99
CCCCCCCC/C=C\CCCCCCCC(=O)OCC(COC(=O)CCCCCCC/C=C\CCCCCCCC)(COC(=O)CCCCCCC/C=C\CCCCCCCC)COC(=O)CCC(CCCCCC)OC(=O)NCCN1CCCC1 (stereo not drawn) [Compound 1]	99
CCCCC/C=C\CCOC(=O)CCCCCC(=O)OCC(COC(=O)CCCCCC(=O)OCC/C=C\CCCCC)(COC(=O)CCCCCC(=O)OCC/C=C\CCCCC)COC(=O)CCC(CCCCCC)OC(=O)NCCN1CCCC1 (stereo not drawn) [Compound 7]	96
CCCCC/C=C\CCOC(=O)CCCCCC(=O)OCC(COC(=O)CCCCCC(=O)OCC/C=C\CCCCC)(COC(=O)CCC(CCCCCC)OC(=O)NCCN1CCCC1)COC(=O)CC12CC3CC(CC(C3)C1)C2 (stereo not drawn) [Compound 8]	97
